Data origin: patent US11001872B2

test system: protein sample; assay: Protein quality control screen: melting point temperature vs pH and NaCl concentration; assay type: physicochemical; details: pH 8.5; NaCl Concentration 1
Endpoint name: protein melting point temperature (°C)

INSERT INTO measurements (molecule, assay_system, reported_result) VALUES
  ('[Cl-].[Na+] [sodium chloride]', 'protein sample', 76);

---

system: protein sample; test: Protein quality control screen: melting point temperature vs pH and NaCl concentration; type: physicochemical; details: pH 5.5; NaCl Concentration 0.75
Endpoint name: protein melting point temperature (°C)

INSERT INTO results (compound, endpoint_name, reported_result) VALUES
  ('[Cl-].[Na+] [sodium chloride]', 'protein melting point temperature', 76);
